Source: the RNAGym collection of RNA variant scans (doi:10.1021/acssynbio.7b00057)

B1: Pistol ribozyme (parent)
chain: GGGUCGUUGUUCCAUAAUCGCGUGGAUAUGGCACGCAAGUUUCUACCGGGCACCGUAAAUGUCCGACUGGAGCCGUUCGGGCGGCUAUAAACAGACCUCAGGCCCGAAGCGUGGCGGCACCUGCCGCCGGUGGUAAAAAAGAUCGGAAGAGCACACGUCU

Variants of: B1
Assay: aptazyme ON/OFF ratio, guanine; higher = stronger switching; co-transcriptional cleavage with and without guanine
Measurement type: aptazyme ON/OFF ratio
Response field accepts a number only; no unit should be typed.

Consider the reported aptazyme ON/OFF ratio for these variants:
INSERT INTO results (mutation, quantitative_result) VALUES
  ('U7G U10G C12G C13U', 1.12),
  ('U7G U8G U11G C13U', 1.28),
  ('U8C G9A U11C C12A C13U', 1.17),
  ('U7C U8G U11C C12U C13G', 1.19);

Consider the additional variant presented here.
Give me measured aptazyme ON/OFF ratio, please, for this variant: U7G G9U U10C C12G C13U
1.29
